- targetDesc: recombinant human PIM1 (Homo sapiens (Human), UniProt P11309)
- Sequence (P11309 whole entry): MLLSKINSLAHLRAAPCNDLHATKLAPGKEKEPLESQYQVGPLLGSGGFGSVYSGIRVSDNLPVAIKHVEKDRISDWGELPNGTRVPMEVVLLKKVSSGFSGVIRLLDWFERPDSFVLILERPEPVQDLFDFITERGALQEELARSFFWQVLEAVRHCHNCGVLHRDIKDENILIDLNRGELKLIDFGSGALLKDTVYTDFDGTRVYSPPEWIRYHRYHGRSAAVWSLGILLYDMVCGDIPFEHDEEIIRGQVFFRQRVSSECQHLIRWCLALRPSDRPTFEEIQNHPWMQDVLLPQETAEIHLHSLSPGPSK
- assayProcedure: PIM-1 kinase activity in cell-free in vitro assay
- Format: biochemical
- measurementParameters: 500 nM compound, cell-free; read-out: PIM-1: % inh 500 nM
property: inhibition at 0.5 µM (%)

Solved cases (6 shown):
Query block: // lookup inhibition at 0.5 µM for CCC(c1ccccc1)c1nc2cc(C(=O)O)ccc2c2sccc12 (centres unmarked)
Result block: 35.4

Query block: // lookup inhibition at 0.5 µM for "O=C(O)c1ccc2c(c1)nc(NCc1ccccn1)c1ccsc12"
Result block: -36.6

Query block: // lookup inhibition at 0.5 µM for O=c1[nH]c2cc(-c3nnn[nH]3)ccc2c2cnccc12 [drawing 1444]
Result block: 3.3

Query block: // lookup inhibition at 0.5 µM for "O=C(O)c1ccc2c(c1)nc(Nc1cccc(C(=O)NC3CC3)c1)c1ccsc12"
Result block: 37.5

Query block: // lookup inhibition at 0.5 µM for "CN(C)CCNc1nc2cc(-c3nnn[nH]3)ccc2c2sccc12"
Result block: 92.9

Query block: // lookup inhibition at 0.5 µM for "COc1ccc(Nc2nc3cc(-c4nnn[nH]4)ccc3c3sccc23)cc1OC"
Result block: 55.5

[I] COc1cc(Nc2nc3cc(-c4nnn[nH]4)ccc3c3sccc23)ccc1C
[II] O=C(O)c1ccc2c(c1)nc(Nc1cccc(C(=O)Nc3ccccc3)c1)c1ccsc12
Query block: Short answer wanted: higher inhibition at 0.5 µM, I or II ? In your reply, give the label of the chosen option.
Result block: I
(I: 34.1%, II: -20.9%)

[a] O=C(O)CNc1nc2ccccc2c2ccccc12
[b] O=C(O)c1ccc2c(c1)nc(NCCO)c1ccsc12
[c] COc1cccc(Nc2nc3cc(C(=O)O)ccc3c3sccc23)c1
Query block: Rank ascending by inhibition at 0.5 µM. Answer by writing out the labels in the requested order.
Result block: b, a, c
(b: -49.4%, a: -17.5%, c: 23.4%)

====

- targetDesc: recombinant human PIM1 (Homo sapiens (Human), UniProt P11309)
- assayProcedure: PIM-1 kinase activity in cell-free in vitro assay
- Format: biochemical
- measurementParameters: 500 nM compound, cell-free assay; read-out: PIM-1: % inh 500 nM
property: inhibition at 0.5 µM (%)

Solved cases (5 shown):
Query block: // fetch recombinant human PIM1 (Homo sapiens (Human), UniProt P11309) inhibition at 0.5 µM for "O=C(O)c1ccc2c(c1)nc(NCCc1ccccc1)c1cnccc12"
Result block: 42.2

Query block: // fetch recombinant human PIM1 (Homo sapiens (Human), UniProt P11309) inhibition at 0.5 µM for N#Cc1ccc2c(c1)nc(NCC(O)c1ccccc1)c1ccsc12 (centres unmarked)
Result block: 6.38

Query block: // fetch recombinant human PIM1 (Homo sapiens (Human), UniProt P11309) inhibition at 0.5 µM for "Clc1cccc(Nc2nc3cc(-c4nnco4)ccc3c3cnccc23)c1"
Result block: -0.614

Query block: // fetch recombinant human PIM1 (Homo sapiens (Human), UniProt P11309) inhibition at 0.5 µM for "N#Cc1ccc2c(c1)nc(NCCO)c1ccsc12"
Result block: -2.91

Query block: // fetch recombinant human PIM1 (Homo sapiens (Human), UniProt P11309) inhibition at 0.5 µM for "O=C(O)c1ccc2c(c1)nc(N1CCC(N3CCOCC3)CC1)c1ccncc12"
Result block: 20.7

[P] O=C(O)c1ccc2c(c1)nc(Nc1ccc3ncccc3c1)c1ccncc12
[Q] N#Cc1ccc2c(c1)nc(Nc1ccc(Cl)cc1)c1cscc12
Query block: // which entry reports the smaller inhibition at 0.5 µM, P or Q ? In your reply, give the label of the chosen option.
Result block: Q

[a] CN(c1ccccc1)c1nc2cc(C(=O)O)ccc2c2nccnc12
[b] COC(=O)c1ccc2c(c1)nc(Nc1cccc(Cl)c1)c1nc(NCCC(N)=O)ncc12
Query block: Short answer wanted: higher inhibition at 0.5 µM, a or b ? In your reply, give the label of the chosen option.
Result block: a
(a: 1.15%, b: -12.6%)

[I] N#Cc1ccc2c(c1)nc(N1CCC(N3CCOCC3)CC1)c1ccsc12
[II] CCc1cccc(Nc2nc3cc(C(=O)O)ccc3c3cnccc23)c1
Query block: // which entry reports the smaller inhibition at 0.5 µM, I or II ? In your reply, give the label of the chosen option.
Result block: I
